# assay-name: small-molecule microarray binders of probe aShh, primary screen, biochemical, biotinylated probe, 635/667 nm fluorescence (AID 1114);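 further: probe is biotin-labelled aShh protein from a stem cell growth factor screen; measures binding of labelled protein to compounds printed on the slide; score merges feature fluorescence at 667 nm with signal-to-noise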
# experimental-conditions: higher = more signal
Measured composite z-score, listed per entry for reference.
I only need the number, thanks.

// below: answered compounds
[[record]]
compound = "O=C(CS)NCCCCCCNC(=O)[C@@H]1C[C@@H]2C(=O)N[C@@H](Cc3ccccc3)C(=O)N2[C@@H]1c1cccc(OCCO)c1"
readout = "composite z-score"
data_value = 0.265

[[record]]
compound = "COCCOC(=O)N1C(=O)[C@@]2(c3ccccc31)[C@H](c1ccccc1OCCO)N1[C@H](c3ccccc3)[C@H](c3ccccc3)OC(=O)[C@H]1[C@@H]2C(=O)N1CCN(c2ncccn2)CC1"
readout = "composite z-score"
data_value = 0.199

[[record]]
compound = "C=C(COC)/C(=C/C[C@H](OC(C)=O)c1ccc(CO)o1)c1cc(C(=O)OC)ccc1OC"
readout = "composite z-score"
data_value = -0.105


Input: Name the recorded composite z-score of the compound listed here: CC(C)C[C@@H]1NC(=O)[C@H](C(C)C)NC(=O)[C@@]23C(=O)N[C@@H](Cc4ccccc4)C2[C@H](C)[C@@]2(C)O[C@H]2C3/C=C/CC/C=C/CNC1=O (some centres undefined)
Output: -0.283

---

Measured z-score, listed per entry for reference.
# assay-name: RPMI8226 myeloma cell viability, profiling panel, resazurin fluorescence, basal, 24 h, PK04 Diversity Set (AID 1180);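 further: RPMI8826 multiple myeloma cell line at 5000 cells per well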
# experimental-conditions: higher = more signal
I only need the number, thanks.

[[record]]
molecule = "C=C(C)[C@@H]1CC=C(C(O)C2C=CC3C(=O)N(C)C(=O)C3N2Nc2ccccc2)CC1 (stereo partly drawn)"
data_value = -0.581


Input: Name the recorded z-score of the molecule listed here: C[C@H]1C2[C@H](Cc3ccccc3)NC(=O)[C@]23C(=O)N[C@H](Cc2ccccc2)C(=O)N2CCC[C@H]2C(=O)NC/C=C\C/C=C/C3[C@@H]2O[C@]12C (stereo partly drawn)
Output: 1.19

Input: Name the recorded z-score of the molecule listed here: C=CC[C@@]12N=C(c3ccc(OCCCO)cc3)O[C@@H]1c1ccccc1N(C)C2=O
Output: -0.912

Input: Name the recorded z-score of the molecule listed here: COc1cccc(-c2cccc(=O)o2)c1
Output: -0.0335

---

# Test system: XIP peptide (Xip251-270) binding
# assay-name: small-molecule binders of XIP peptide, primary screen, biochemical, small-molecule microarray, fluorescence 635/667 nm, 0.1 µg/mL protein (AID 1182)
# experimental-conditions: fluorescent protein binding, 635 nm, higher = more signal, called active from +8 up or from −8 down
Decision: composite z-score >= -0.05 yields y, all other cases yield n.

[[record]]
molecule = "C=C(CCCC)/C(=C/C[C@H](OC(C)=O)c1ccccc1OCCO)c1cc(C(=O)OC)ccc1OC"
cat = "y"

[[record]]
molecule = "[N-]=[N+]=Nc1ccccc1[C@H]1OC(c2ccc(OCCCO)cc2)=N[C@@]1(CCS(=O)(=O)c1ccccc1)C(=O)NCC(O)CO (stereo partly drawn)"
cat = "n"


Input: Quick check, composite z-score >= -0.05? Oc1ccc2cc[n+](Cc3sc4ccccc4c3Cl)cc2c1
Output: y

Input: Quick check, composite z-score >= -0.05? COCCCNC(=O)[C@@H]1c2ccccc2C(=O)N(Cc2ccccc2Cl)[C@H]1c1ccc(CO)cc1
Output: y

Input: Quick check, composite z-score >= -0.05? O=C(NCCO)C1=C[C@H](Oc2ccccc2I)[C@@H](O)[C@H](N(Cc2ccco2)C(=O)Cc2ccccc2)C1
Output: y

Input: Quick check, composite z-score >= -0.05? O=C(CS)NCCCCCCNC(=O)[C@@H]1C[C@@H]2C(=O)NCC(=O)N2[C@@H]1c1cccc(OCCO)c1
Output: y

Input: Quick check, composite z-score >= -0.05? COc1ccc([Si](C)(C)[C@@H]2[C@@H](CC(=O)N3CCC[C@H]3CO)O[C@]3(C(=O)N(c4ccccc4)c4ccccc43)[C@H]2C)cc1
Output: n
